# Tested on: P388 leukemia ip, CD2F1 mice, survival T/C
# Assay Overview: NCI In Vivo Anticancer Drug Screen. Data for tumor model P388 Leukemia (intraperitoneal) in CD2F1 (CDF1) mice
# Stated Conditions: endpoint: median survival time; dose: 25.0 mg/kg/injection; schedule: Q01DX005 (ip); vehicle: saline; higher = longer survival
Toxic doses and inconclusive results are not listed.
Quantity: T/C

Compound	T/C
CCCCN(CCCC)CC(CN(CC)CC)N(CC)C(=O)Nc1ccccc1 (stereo not given)	93 % of control
Nc1ccn([C@@H](C=O)C[C@@H](C=O)CO)c(=O)n1	112 % of control

# map each compound to its T/C
1. CN1CCC2(C)CC1Cc1ccc(O)cc12 (stereo not given)
2. CC1CN(C(C)(C)C)CO1 (stereo not given)
3. CCN(CC)CCSc1c2ccc(Cl)cc2nc2ccc(OC)cc12

# output
96 % of control
107 % of control
106 % of control

* * *

# Test system: P388 leukemia ip, CD2F1 mice, survival T/C
# Assay Overview: NCI In Vivo Anticancer Drug Screen. Data for tumor model P388 Leukemia (intraperitoneal) in CD2F1 (CDF1) mice
# Stated Conditions: endpoint: median survival time; dose: 200.0 mg/kg/injection; schedule: Q01DX009 (ip); vehicle: saline with Tween-80; higher = longer survival
Toxic doses and inconclusive results are not listed.
Quantity: T/C

Take a look at these entries with their results.
Compound	T/C
O=C(O)/C=C/C(=O)NCc1ccco1	109 % of control
Cc1c(N(C)C)nc2cc(N(C)C)ccc2c1Cl	91 % of control
NC(=S)N/N=C/c1cccnc1	92 % of control

Hi there! I need T/C for each item below, if you can.
1. Cc1ccc(C(=N)c2ccccc2Cc2cccc3ccccc23)c(C)c1
2. CCC1(CCC(C)C)C(=O)N(CCCl)C(=O)N(CCCl)C1=O
3. CCOC(=O)C(=CNc1cc(C)ccn1)C(=O)OCC

# output
96 % of control
96 % of control
100 % of control

Required: T/C, one value per compound below.
1. O=c1c2[nH]c3ccccc3sc=2c(=O)c2ccccc12
2. O=C1c2cccc([N+](=O)[O-])c2C(=O)C1c1ccccn1 (configuration not stated)
3. Cc1[nH][nH]c(=O)c1[N+](=O)[O-]
4. O=C(NC(=S)Nc1ncn[nH]1)c1ccc(Cl)c(Cl)c1
5. N#CC1OC(COC(=O)c2ccccc2)C(OC(=O)c2ccccc2)C1OC(=O)c1ccccc1 (configuration not stated)
6. CSc1ncnc2c1ncn2C1OC(CO)C(O)C1O (configuration not stated)

# output
1: 106 % of control; 2: 96 % of control; 3: 114 % of control; 4: 92 % of control; 5: 94 % of control; 6: 101 % of control

* * *

# Test system: P388 leukemia ip, CD2F1 mice, survival T/C
# Assay Overview: NCI In Vivo Anticancer Drug Screen. Data for tumor model P388 Leukemia (intraperitoneal) in CD2F1 (CDF1) mice
# Stated Conditions: endpoint: median survival time; dose: 12.5 mg/kg/injection; schedule: Q04DX003 (ip); vehicle: saline with Tween-80; higher = longer survival
Toxic doses and inconclusive results are not listed.
Quantity: T/C

// for each compound below, give its T/C
1. c1cc2c(cc1NC1=NCCO1)CCC2
2. CCOC(=O)C(C)(C)c1nc[nH]c1[N+](=O)[O-]
3. COc1cccc2c1C(=O)c1c(O)c3c(c(O)c1C2=N)C[C@@](O)(C(C)=O)CC3OC1CC(N(Cc2ccccc2)Cc2ccccc2)C(O)C(C)O1 (stereo not given in full)

# output
1. 100 % of control
2. 100 % of control
3. 102 % of control

Batch request: T/C for each of the following compounds.
1. Nc1cccc(NC=O)c1
2. CC1CCC2CC(=O)NC(=O)CC12 (stereo not given)

# output
["100 % of control", "100 % of control"]
